Catalogue of compounds with associated absorption maximum
- method_notes: solvent given as SMILES
- condition_context: in CS(C)=O
metric_name: absorption maximum (nm)

compound: C1=Nc2cccc3cccc(c23)N1
value_measured: 333

compound: O=C1CC(=O)Nc2cc(Br)ccc2N1
value_measured: 299

compound: CCC1=C(C)C(=O)n2c1cc1[nH]c(C(=O)OC(C)(C)C)c(C)c1c2=O
value_measured: 397

compound: Clc1cccc(-c2nc3sc4ccccc4c3s2)c1
value_measured: 351

compound: CSc1sc(C(=O)c2ccccc2)c2nn[nH]c(=O)c12
value_measured: 405.5

compound: CN(C)c1ccc(-c2ccc(-c3cc(N4CCCCC4)c(C#N)c4c3-c3ccccc3CC4)cc2)cc1
value_measured: 342

compound: Cn1c(/C=C/c2ccc(/C=C/c3nc4ccccc4[nH]3)cc2)[n+](C)c2ccccc21
value_measured: 392

compound: CC(=O)c1ccc2ccc3c(NCCC(=O)NCCCCCCc4nc5c(=O)[nH]c(N)nc5n4[C@H]4C[C@H](O)[C@@H](CO)O4)ccc4ccc1c2c43
value_measured: 456

compound: Fc1ccc2sc3nc(-c4ccccc4)sc3c2c1
value_measured: 345

compound: CCOC(=O)CN1C(=O)C2=C(c3ccc(N4CCCCC4)cc3)N(CC(=O)OCC)C(=O)C2=C1c1ccc(C#N)cc1
value_measured: 541

compound: CC[n+]1ccc2ccccc2c1/C=C/c1c([O-])ccc2ccc(=O)oc12
value_measured: 593.42

compound: C[n+]1ccnc(/C=C/c2ccc(N(c3ccccc3)c3ccc(/C=C/c4c[n+](C)ccn4)cc3)cc2)c1
value_measured: 440

compound: O=C1CCCC2=C1C(c1cccc(Cl)c1)c1c(c3ccccc3oc1=O)N2 (configuration not stated)
value_measured: 373

compound: COc1ccc2cc(-c3ccc(C)cc3)c(=O)oc2c1
value_measured: 345

compound: CN1CCN(c2ccc3c4c(cccc24)C(=O)c2ccccc2-3)CC1
value_measured: 460.8

compound: O=c1oc2ccccc2c2c1c(=O)oc1cc(O)c3ccccc3c12
value_measured: 441

compound: CCCCN1C(=O)c2cccc3c(N(C)C)ccc(c23)C1=O
value_measured: 428

compound: CCOC(=O)CN(CC(=O)OCC)c1ccc(-c2cc(-c3ccccn3)nc(-c3ccccn3)c2)cc1
value_measured: 336

compound: COc1cc2c(cc1-c1ccccc1)Cc1c3c(c4c(c1-2)-c1cc(OC)c(-c2ccccc2)cc1C4)C(=O)N(CCC(C)C)C3=O
value_measured: 413

compound: COc1ccc(OC)c(C=O)c1
value_measured: 353

compound: CCOC(=O)C1=C(N)n2c(=O)c3ccccc3c(=O)n2C1c1ccc([N+](=O)[O-])cc1 (configuration not stated)
value_measured: 358

compound: O=Cc1cc(O)ccc1O
value_measured: 366
